Where these numbers come from: patent US20110206770A1

Experiment: D90 particle size of atovaquone by Malvern Mastersizer
Format: physicochemical
Settings: Run 3, stir time 4 min
RESULT TYPE: D90 particle size (microns)

Some solved entries appear below for comparison.
compound="O=C1C(O)=C([C@H]2CC[C@H](c3ccc(Cl)cc3)CC2)C(=O)c2ccccc21 [Example 3]" uom=microns recorded_value=4.123
compound="O=C1C(O)=C([C@H]2CC[C@H](c3ccc(Cl)cc3)CC2)C(=O)c2ccccc21 [Example 2]" uom=microns recorded_value=6.339
compound="O=C1C(O)=C([C@H]2CC[C@H](c3ccc(Cl)cc3)CC2)C(=O)c2ccccc21 [Example 4]" uom=microns recorded_value=4.836

[A] O=C1C(O)=C([C@H]2CC[C@H](c3ccc(Cl)cc3)CC2)C(=O)c2ccccc21 [Example 1]
[B] O=C1C(O)=C([C@H]2CC[C@H](c3ccc(Cl)cc3)CC2)C(=O)c2ccccc21 [Example 5]
Consider A and B . Which of these has its D90 particle size at a higher number? State your choice using its label.
B

###

Assay: D90 particle size of atovaquone by Malvern Mastersizer
Format: physicochemical
Settings: Run 1, stir time 2 min
RESULT TYPE: D90 particle size (microns)

compound="O=C1C(O)=C([C@H]2CC[C@H](c3ccc(Cl)cc3)CC2)C(=O)c2ccccc21 [Example 1]" result_type="D90 particle size" recorded_value=5.089

[P] O=C1C(O)=C([C@H]2CC[C@H](c3ccc(Cl)cc3)CC2)C(=O)c2ccccc21 [Example 2]
[Q] O=C1C(O)=C([C@H]2CC[C@H](c3ccc(Cl)cc3)CC2)C(=O)c2ccccc21 [Example 3]
Which record would sort first by descending D90 particle size, P or Q ? The response must carry the label of the picked entry.
P

[A] O=C1C(O)=C([C@H]2CC[C@H](c3ccc(Cl)cc3)CC2)C(=O)c2ccccc21 [Example 5]
[B] O=C1C(O)=C([C@H]2CC[C@H](c3ccc(Cl)cc3)CC2)C(=O)c2ccccc21 [Example 4]
Thinking about recorded D90 particle size values, which is higher, A or B ? Reply with the label of the item you choose.
A

###

Test: D90 particle size of atovaquone by Malvern Mastersizer
Format: physicochemical
Conditions: Run 3, stir time 5 min
RESULT TYPE: D90 particle size (microns)

compound="O=C1C(O)=C([C@H]2CC[C@H](c3ccc(Cl)cc3)CC2)C(=O)c2ccccc21 [Example 2]" recorded_value=6.337
compound="O=C1C(O)=C([C@H]2CC[C@H](c3ccc(Cl)cc3)CC2)C(=O)c2ccccc21 [Example 1]" recorded_value=5.048
compound="O=C1C(O)=C([C@H]2CC[C@H](c3ccc(Cl)cc3)CC2)C(=O)c2ccccc21 [Example 4]" recorded_value=4.984

[a] O=C1C(O)=C([C@H]2CC[C@H](c3ccc(Cl)cc3)CC2)C(=O)c2ccccc21 [Example 3]
[b] O=C1C(O)=C([C@H]2CC[C@H](c3ccc(Cl)cc3)CC2)C(=O)c2ccccc21 [Example 5]
Which is greater in D90 particle size, the first item a or the second item b ? Lab note: record the label of whichever item you select.
b
(b: 7.973 microns, a: 4.125 microns)

###

Assay: D90 particle size of atovaquone by Malvern Mastersizer
Type: physicochemical
Conditions: Run 2, stir time 1 min
RESULT TYPE: D90 particle size (microns)

Completed entries (count: 3):
molecule="O=C1C(O)=C([C@H]2CC[C@H](c3ccc(Cl)cc3)CC2)C(=O)c2ccccc21 [Example 3]" uom=microns recorded_value=4.260
molecule="O=C1C(O)=C([C@H]2CC[C@H](c3ccc(Cl)cc3)CC2)C(=O)c2ccccc21 [Example 4]" uom=microns recorded_value=4.628
molecule="O=C1C(O)=C([C@H]2CC[C@H](c3ccc(Cl)cc3)CC2)C(=O)c2ccccc21 [Example 2]" uom=microns recorded_value=6.258

[a] O=C1C(O)=C([C@H]2CC[C@H](c3ccc(Cl)cc3)CC2)C(=O)c2ccccc21 [Example 1]
[b] O=C1C(O)=C([C@H]2CC[C@H](c3ccc(Cl)cc3)CC2)C(=O)c2ccccc21 [Example 5]
Lower value for measured D90 particle size? Options: a , b Lab log: write the label of the selected item as the result.
a

###

Experiment: D90 particle size of atovaquone by Malvern Mastersizer
Format: physicochemical
Conditions: Run 4, stir time 5 min
RESULT TYPE: D90 particle size (microns)

compound="O=C1C(O)=C([C@H]2CC[C@H](c3ccc(Cl)cc3)CC2)C(=O)c2ccccc21 [Example 2]" uom=microns recorded_value=6.571
compound="O=C1C(O)=C([C@H]2CC[C@H](c3ccc(Cl)cc3)CC2)C(=O)c2ccccc21 [Example 4]" uom=microns recorded_value=4.814
compound="O=C1C(O)=C([C@H]2CC[C@H](c3ccc(Cl)cc3)CC2)C(=O)c2ccccc21 [Example 3]" uom=microns recorded_value=4.286
compound="O=C1C(O)=C([C@H]2CC[C@H](c3ccc(Cl)cc3)CC2)C(=O)c2ccccc21 [Example 1]" uom=microns recorded_value=5.281

###

Test: D90 particle size of atovaquone by Malvern Mastersizer
Assay type: physicochemical
Settings: Run 3, stir time 3 min
RESULT TYPE: D90 particle size (microns)

Solved cases (3 shown):
molecule="O=C1C(O)=C([C@H]2CC[C@H](c3ccc(Cl)cc3)CC2)C(=O)c2ccccc21 [Example 4]" recorded_value=4.837
molecule="O=C1C(O)=C([C@H]2CC[C@H](c3ccc(Cl)cc3)CC2)C(=O)c2ccccc21 [Example 5]" recorded_value=7.977
molecule="O=C1C(O)=C([C@H]2CC[C@H](c3ccc(Cl)cc3)CC2)C(=O)c2ccccc21 [Example 1]" recorded_value=5.048

[I] O=C1C(O)=C([C@H]2CC[C@H](c3ccc(Cl)cc3)CC2)C(=O)c2ccccc21 [Example 2]
[II] O=C1C(O)=C([C@H]2CC[C@H](c3ccc(Cl)cc3)CC2)C(=O)c2ccccc21 [Example 3]
// pick min by D90 particle size: I , II Pick one and reply with its label.
II
(II: 4.123 microns, I: 6.336 microns)

###

Test: D90 particle size of atovaquone by Malvern Mastersizer
Type: physicochemical
Settings: Run 1, stir time 3 min
RESULT TYPE: D90 particle size (microns)

molecule="O=C1C(O)=C([C@H]2CC[C@H](c3ccc(Cl)cc3)CC2)C(=O)c2ccccc21 [Example 4]" uom=microns recorded_value=4.652
molecule="O=C1C(O)=C([C@H]2CC[C@H](c3ccc(Cl)cc3)CC2)C(=O)c2ccccc21 [Example 3]" uom=microns recorded_value=4.280
molecule="O=C1C(O)=C([C@H]2CC[C@H](c3ccc(Cl)cc3)CC2)C(=O)c2ccccc21 [Example 2]" uom=microns recorded_value=6.175

[P] O=C1C(O)=C([C@H]2CC[C@H](c3ccc(Cl)cc3)CC2)C(=O)c2ccccc21 [Example 5]
[Q] O=C1C(O)=C([C@H]2CC[C@H](c3ccc(Cl)cc3)CC2)C(=O)c2ccccc21 [Example 1]
Among P and Q , which shows a numerically higher D90 particle size result? Please respond with the label that marks your chosen entry.
P
(P: 8.215 microns, Q: 5.090 microns)

###

Assay: D90 particle size of atovaquone by Malvern Mastersizer
Format: physicochemical
Conditions: Run 3, stir time 2 min
RESULT TYPE: D90 particle size (microns)

Previously resolved entries follow.
compound="O=C1C(O)=C([C@H]2CC[C@H](c3ccc(Cl)cc3)CC2)C(=O)c2ccccc21 [Example 3]" recorded_value=4.124
compound="O=C1C(O)=C([C@H]2CC[C@H](c3ccc(Cl)cc3)CC2)C(=O)c2ccccc21 [Example 2]" recorded_value=6.339
compound="O=C1C(O)=C([C@H]2CC[C@H](c3ccc(Cl)cc3)CC2)C(=O)c2ccccc21 [Example 1]" recorded_value=5.049

[a] O=C1C(O)=C([C@H]2CC[C@H](c3ccc(Cl)cc3)CC2)C(=O)c2ccccc21 [Example 5]
[b] O=C1C(O)=C([C@H]2CC[C@H](c3ccc(Cl)cc3)CC2)C(=O)c2ccccc21 [Example 4]
Please indicate which entry, a or b , has the lower recorded D90 particle size value. // caller expects the label of the chosen entry
b
(b: 4.836 microns, a: 7.974 microns)

###

Assay: D90 particle size of atovaquone by Malvern Mastersizer
Assay type: physicochemical
Conditions: Run 2, stir time 2 min
RESULT TYPE: D90 particle size (microns)

compound="O=C1C(O)=C([C@H]2CC[C@H](c3ccc(Cl)cc3)CC2)C(=O)c2ccccc21 [Example 4]" uom=microns recorded_value=4.628
compound="O=C1C(O)=C([C@H]2CC[C@H](c3ccc(Cl)cc3)CC2)C(=O)c2ccccc21 [Example 3]" uom=microns recorded_value=4.260

[I] O=C1C(O)=C([C@H]2CC[C@H](c3ccc(Cl)cc3)CC2)C(=O)c2ccccc21 [Example 1]
[II] O=C1C(O)=C([C@H]2CC[C@H](c3ccc(Cl)cc3)CC2)C(=O)c2ccccc21 [Example 5]
Kindly identify the item with the lower D90 particle size figure among these two: I and II Lab log: write the label of the selected item as the result.
I
